Reported polymerase ribozyme fitness (log ratio) is given for each of the following variants.
B1: TPR 5TU (parent)
chain: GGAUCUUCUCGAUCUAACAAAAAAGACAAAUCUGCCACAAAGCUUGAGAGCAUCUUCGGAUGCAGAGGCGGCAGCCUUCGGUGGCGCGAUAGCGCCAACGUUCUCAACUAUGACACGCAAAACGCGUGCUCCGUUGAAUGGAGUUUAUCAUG

- Variants of: B1
- assay_text: polymerase ribozyme fitness, log enrichment relative to wild type (log ratio); higher = more active; in vitro selection for triplet polymerase activity
Variants at the floor of the assay were thinned out.
readout_kind: polymerase ribozyme fitness (log ratio)

{"mutation_key": "C32U C76A G83U G92C C114U C123A", "result": "≤ -4.2"}
{"mutation_key": "A12G C57U U61A G68A G70C C87U C96A G133A U148A", "result": "≤ -4.2"}
{"mutation_key": "G25U G46C G50A G62A C96U", "result": "≤ -4.2"}
{"mutation_key": "C43U G58C C95A U102C C103G C105G A110U", "result": "≤ -4.2"}
{"mutation_key": "A66C A91C", "result": "≤ -4.2"}
{"mutation_key": "C43G C105A C123G U148A", "result": "≤ -4.2"}
{"mutation_key": "U31C A47U G88A C108A", "result": "≤ -4.2"}
{"mutation_key": "A16G A20U U33G C85A G94A A150C", "result": "≤ -4.2"}
{"mutation_key": "U44G G46C A60C U61A C95U", "result": "≤ -4.2"}
{"mutation_key": "A21G A24G C51U U104G A113U", "result": "≤ -4.2"}
{"mutation_key": "C14U C32G U33G A47U U53A G74A C95G A106G U135A", "result": "≤ -4.2"}
{"mutation_key": "U9A A41U G74A A89G C132U", "result": "≤ -4.2"}
{"mutation_key": "U33G U56A U90A U101G C108G A119U U135C G136A", "result": "≤ -4.2"}
{"mutation_key": "A28U C75U G84U G86A C93U A106G A113U", "result": "≤ -4.2"}
{"mutation_key": "U15G A28G A29U C36G A40G G94U U102C A122G U139G", "result": "≤ -4.2"}
{"mutation_key": "A26U G42U U44A U55A G59U C103G A119G A120U G140U", "result": "≤ -4.2"}
{"mutation_key": "C85U C87U C108U C114A", "result": "≤ -4.2"}
{"mutation_key": "C76A A138U", "result": -4.05}
{"mutation_key": "G46C G58C G83C C125A", "result": -4.17}
{"mutation_key": "G83A A97U", "result": 0.538}
{"mutation_key": "A20C C85A A97U", "result": -3.02}
{"mutation_key": "C10U A64C A89C G117C A137C", "result": "≤ -4.2"}
{"mutation_key": "C93A U146G", "result": -3.27}
{"mutation_key": "C5G G84A", "result": -0.0388}
{"mutation_key": "G50A G65A A89U U101A A106C", "result": -4.2}
{"mutation_key": "A17G G48A", "result": -1.03}
{"mutation_key": "C35U A49C C79A C87A A119U", "result": "≤ -4.2"}
{"mutation_key": "C63U U102A U104G G124A", "result": -2.05}
{"mutation_key": "A20G A40C A41G A49C C76G G88A C96U", "result": "≤ -4.2"}
{"mutation_key": "C57A U102C C103U", "result": -2.76}
{"mutation_key": "A30G G46U G68U A147C", "result": "≤ -4.2"}
{"mutation_key": "U56A U130A A147C", "result": -3.18}
{"mutation_key": "A40C G46C C57A G74C C103A A107U C118G U134G G140C", "result": "≤ -4.2"}
{"mutation_key": "A20U U56A", "result": -1.87}
{"mutation_key": "U9G U56A", "result": -4.07}
